# credit: patent US11530244B2

- tested-target: UniProt Q8NBP7
- experimental-protocol: PCSK9 Alexa FRET Standard assay (displacement of AlexaFluor647 tagged cyclic peptide Reagent A)
- Format: binding
- measurement-conditions: PCSK9 Alexa FRET Standard assay, 0.5 nM PCSK9, 20 nM AF cyclic peptide Reagent A; read-out: IC50
pIC50: −log10 of the molar value. Starred links: 1 amine or outer side, 2 acyl side, 3 side chain; linkers in the order of their positions; H or OH if unused. Positions of bridges follow the written chain, without caps; N, C: chain ends. Non-standard residues stand in square brackets, D forms with d. Residues, ends and D or L forms follow the SMILES beside them. Trp(5-F) = N[C@@H](Cc1c[nH]c2ccc(F)cc12)C(=O)O; X49 = NCCCC[C@H](N[*:1])c1nc(C(=O)[*:2])co1; Pro(cis-4-F) = O=C(O)[C@@H]1C[C@H](F)CN1; mXylylene = c1cc(C[*:1])cc(C[*:2])c1; X22 = Oc1cc(C[*:1])cc(C[*:2])c1; aThr = C[C@H](O)[C@H](N)C(=O)O; αMeP = C[C@@]1(C(=O)O)CCCN1; Dab = NCC[C@H](N)C(=O)O; X2 = O=C(C[*:2])[*:1]; Mpa = O=C(O)CCS
recorded-endpoint: pIC50

Recorded results for 4 molecules are shown here.
# molecule, tested-target, pIC50
measured = [
    ("C[C@@]12CCCN1C(=O)[C@H](Cc1ccc(O)cc1)NC(=O)[C@H](Cc1c[nH]cn1)NC(=O)[C@H](CC(=O)O)NC(=O)[C@H](Cc1c[nH]c3ccc(F)cc13)NC(=O)[C@H](Cc1c[nH]c3ccc(F)cc13)NC(=O)CNC(=O)[C@H](CCCCN)NC(=O)CCSCc1cc(O)cc(c1)CSC[C@@H](C(N)=O)NC2=O [Compound 359] ([Mpa]KG[Trp(5-F)][Trp(5-F)]DHY[αMeP]C-NH2; linker 1-10 via X22)", "UniProt Q8NBP7", "6.00 to 7.00"),
    ("COc1ccc(C[C@@H]2NC(=O)[C@H](Cc3cnc[nH]3)NC(=O)[C@H](CC(=O)O)NC(=O)[C@H](Cc3c[nH]c4cc(F)ccc34)NC(=O)[C@H](Cc3c[nH]c4ccc(F)cc34)NC(=O)[C@@H](C)NC(=O)[C@H](CCCCN)NC(=O)CCCc3cn(nn3)-c3ccc(cc3)C[C@@H](C(N)=O)NC(=O)[C@]3(C)CCCN3C2=O)cc1", "UniProt Q8NBP7", "6.00 to 7.00"),
    ("COc1ccc(C[C@@H]2NC(=O)[C@H]([C@H](C)OC)NC(=O)[C@@H]3C[C@H](F)CN3C(=O)[C@H](Cc3c[nH]c4ccc(F)cc34)NC(=O)[C@H](Cc3c[nH]c4ccc(F)cc34)NC(=O)[C@@H](C)NC(=O)[C@H](CCCCN)NC(=O)CCSCc3cccc(c3)CSC[C@@H](C(N)=O)NC(=O)[C@]3(C)CCCN3C2=O)cc1 [Compound 072] ([Mpa]K[dA][Trp(5-F)][Trp(5-F)][Pro(cis-4-F)][aThr](Me)Y(Me)[αMeP]C-NH2; linker 1-10 via mXylylene)", "UniProt Q8NBP7", "4.92 to 6.00"),
    ("COc1ccc(C[C@@H]2NC(=O)[C@H](Cc3cnc[nH]3)NC(=O)[C@H](CC(=O)O)NC(=O)[C@H](Cc3c[nH]c4ccc(F)cc34)NC(=O)[C@H](Cc3c[nH]c4ccc(F)cc34)NC(=O)[C@@H](C)NC(=O)[C@H](CCCCN)NC(=O)[C@@H](NC(C)=O)CCNC(=O)COc3ccc(cc3)C[C@@H](C(N)=O)NC(=O)[C@]3(C)CCCN3C2=O)cc1 [Compound 409] (Ac-[Dab]K[dA][Trp(5-F)][Trp(5-F)]DHY(Me)[αMeP]Y-NH2; linker 1-10 via X2)", "UniProt Q8NBP7", "6.00 to 7.00"),
]

Value of measured pIC50 for the entry C[C@@]12CCCN1C(=O)[C@H](Cc1ccc(O)cc1)NC(=O)[C@H](Cc1c[nH]cn1)NC(=O)[C@H](CC(=O)O)NC(=O)[C@H](Cc1c[nH]c3ccc(F)cc13)NC(=O)[C@H](Cc1c[nH]c3ccc(F)cc13)NC(=O)c1coc(n1)[C@H](CCCCN)NC(=O)CCSCc1cccc(c1)CSC[C@@H](C(N)=O)NC2=O [Compound 477] ([Mpa][X49][Trp(5-F)][Trp(5-F)]DHY[αMeP]C-NH2; linker 1-9 via mXylylene) : 4.92 to 6.00

---

For each of the compounds below, state its pIC50.
- tested-target: PCSK9 (Homo sapiens (Human), UniProt Q8NBP7)
- Sequence (Q8NBP7 153-692): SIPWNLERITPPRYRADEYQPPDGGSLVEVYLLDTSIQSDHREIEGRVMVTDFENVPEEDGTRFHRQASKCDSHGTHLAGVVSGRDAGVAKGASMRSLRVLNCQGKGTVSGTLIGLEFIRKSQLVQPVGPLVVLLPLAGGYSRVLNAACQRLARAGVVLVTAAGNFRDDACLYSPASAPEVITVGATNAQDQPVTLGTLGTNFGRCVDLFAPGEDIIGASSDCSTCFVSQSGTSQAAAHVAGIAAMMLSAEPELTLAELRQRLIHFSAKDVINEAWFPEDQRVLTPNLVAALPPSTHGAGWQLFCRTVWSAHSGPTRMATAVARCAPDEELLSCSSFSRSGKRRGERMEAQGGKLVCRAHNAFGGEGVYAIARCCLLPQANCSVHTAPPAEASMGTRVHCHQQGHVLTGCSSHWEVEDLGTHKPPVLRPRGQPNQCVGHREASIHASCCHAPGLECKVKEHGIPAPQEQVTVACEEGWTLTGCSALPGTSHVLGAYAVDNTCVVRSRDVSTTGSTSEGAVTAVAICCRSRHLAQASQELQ
- experimental-protocol: PCSK9 Alexa FRET Standard assay (displacement of AlexaFluor647 tagged cyclic peptide Reagent A)
- Format: binding
- measurement-conditions: PCSK9 Alexa FRET Standard assay, 0.5 nM PCSK9, 20 nM AF cyclic peptide Reagent A; read-out: IC50
- Procedure: A solution containing 1 nM biotinylated PCSK9+2.5 nM Lance Streptavidin Europium (Strep-Eu) was made in 50 mM HEPES pH 7.4, 0.15 M NaCl, 5 mM CaCl2), 0.01% BSA, and 0.01% Surfactant P20. […] The reaction was incubated at room temperature for at least two hours prior to fluorescence measurements using an Envision Multilabel Reader. IC50 values were determined by fitting data to a sigmoidal dose-response curve using nonlinear regression. […]
pIC50: −log10 of the molar value. Starred links: 1 amine or outer side, 2 acyl side, 3 side chain; linkers in the order of their positions; H or OH if unused. Positions of bridges follow the written chain, without caps; N, C: chain ends. Non-standard residues stand in square brackets, D forms with d. Residues, ends and D or L forms follow the SMILES beside them. X61 = O=C(CCCCC(=O)[*:1])NCc1ccc(CC(=O)[*:2])cc1; Trp(5-F) = N[C@@H](Cc1c[nH]c2ccc(F)cc12)C(=O)O; X4 = O=C(CCSCc1cccc(CSCCN[*:1])c1)[*:2]; aThr = C[C@H](O)[C@H](N)C(=O)O; αMeP = C[C@@]1(C(=O)O)CCCN1; Dap = NC[C@H](N)C(=O)O

Below: 2 compounds and their reported pIC50.
# compound, pIC50
measured = [
    ("COc1ccc(C[C@@H]2NC(=O)[C@H]([C@H](C)O)NC(=O)[C@H]3CCCN3C(=O)[C@H](Cc3c[nH]c4ccc(F)cc34)NC(=O)[C@H](Cc3c[nH]c4ccc(F)cc34)NC(=O)[C@@H](C)NC(=O)[C@H](CCCCN)NC(=O)CCSCc3cccc(c3)CSCCNC(=O)[C@]3(C)CCCN3C2=O)cc1 [Compound 103] (cyclo(K[dA][Trp(5-F)][Trp(5-F)][dP][aThr]Y(Me)[αMeP][X4]))", "7.00 to 9.96"),
    ("COc1ccc(C[C@@H]2NC(=O)[C@H]([C@H](C)O)NC(=O)[C@@H]3CCCc4cn(nn4)CCCC[C@H](NC(=O)[C@@H](C)NC(=O)[C@H](CCCCN)NC(=O)CCSCc4cccc(c4)CSCCNC(=O)[C@]4(C)CCCN4C2=O)C(=O)N[C@@H](Cc2c[nH]c4ccc(F)cc24)C(=O)N3)cc1", "7.00 to 9.96"),
]

For the next question, use this compound.
Briefly, pIC50 measured for COc1ccc(C[C@@H]2NC(=O)[C@H](Cc3cnc[nH]3)NC(=O)[C@H](CC(=O)O)NC(=O)[C@H](Cc3c[nH]c4ccc(F)cc34)NC(=O)[C@H](Cc3c[nH]c4ccc(F)cc34)NC(=O)[C@@H](C)NC(=O)CCCCC(=O)NCc3ccc(cc3)CC(=O)NC[C@@H](C(N)=O)NC(=O)[C@]3(C)CCCN3C2=O)cc1 [Compound 412] ([dA][Trp(5-F)][Trp(5-F)]DHY(Me)[αMeP][Dap]-NH2; linker N-8 via X61) : 4.92 to 6.00

---

- tested-target: PCSK9 (Homo sapiens (Human))
- experimental-protocol: PCSK9 Alexa FRET Standard assay (displacement of AlexaFluor647 tagged cyclic peptide Reagent A)
- Format: binding
- measurement-conditions: PCSK9 Alexa FRET Standard assay, 0.5 nM PCSK9, 20 nM AF cyclic peptide Reagent A; read-out: IC50
pIC50: −log10 of the molar value. Starred links: 1 amine or outer side, 2 acyl side, 3 side chain; linkers in the order of their positions; H or OH if unused. Positions of bridges follow the written chain, without caps; N, C: chain ends. Non-standard residues stand in square brackets, D forms with d. Residues, ends and D or L forms follow the SMILES beside them. Trp(5-F) = N[C@@H](Cc1c[nH]c2ccc(F)cc12)C(=O)O; X10 = O=C(CCSCc1ccc2ccc(CSCCN[*:1])cc2c1)[*:2]; Pro(trans-4-F) = O=C(O)[C@@H]1C[C@@H](F)CN1; X9 = CS[C@H]1C[C@@H](C(=O)[*:2])N([*:1])C1; mXylylene = c1cc(C[*:1])cc(C[*:2])c1; αMeP = C[C@@]1(C(=O)O)CCCN1; Mpa = O=C(O)CCS
Assignment: determine reported pIC50 for the given compounds.

# compound, pIC50
data = [
    ("CO[C@H](C)[C@@H]1NC(=O)[C@@H]2C[C@@H](F)CN2C(=O)[C@H](Cc2c[nH]c3ccc(F)cc23)NC(=O)[C@H](Cc2c[nH]c3ccc(F)cc23)NC(=O)CNC(=O)[C@H](CCCCN)NC(=O)CCSCc2cccc(c2)CSC[C@@H](C(N)=O)NC(=O)[C@]2(C)CCCN2C(=O)[C@H](Cc2ccc(O)cc2)NC1=O [Compound 059] ([Mpa]KG[Trp(5-F)][Trp(5-F)][Pro(trans-4-F)]T(Me)Y[αMeP]C-NH2; linker 1-10 via mXylylene)", "6.00 to 7.00"),
    ("COc1ccc(C[C@@H]2NC(=O)[C@H](Cc3cnc[nH]3)NC(=O)[C@H](CC(=O)O)NC(=O)[C@H](Cc3c[nH]c4ccc(F)cc34)NC(=O)[C@H](Cc3c[nH]c4ccc(F)cc34)NC(=O)[C@@H](C)NC(=O)[C@H](CCCCN)NC(=O)CCSCc3ccc4ccc(cc4c3)CSCCNC(=O)[C@]3(C)CCCN3C2=O)cc1 [Compound 405] (cyclo(DHY(Me)[αMeP][X10]K[dA][Trp(5-F)][Trp(5-F)]))", "6.00 to 7.00"),
    ("CC(C)C[C@H]1NC(=O)[C@H](CCCCN)NC(=O)CCSCc2cccc(c2)CSC[C@@H](C(N)=O)NC(=O)[C@]2(C)CCCN2C(=O)[C@H](Cc2ccc(O)cc2)NC(=O)[C@H](Cc2cnc[nH]2)NC(=O)[C@H](CC(=O)O)NC(=O)[C@H](Cc2c[nH]c3ccc(F)cc23)NC(=O)[C@H](Cc2c[nH]c3ccc(F)cc23)NC1=O [Compound 373] ([Mpa]K[dL][Trp(5-F)][Trp(5-F)]DHY[αMeP]C-NH2; linker 1-10 via mXylylene)", "6.00 to 7.00"),
    ("C[C@@]12CCCN1C(=O)[C@H](Cc1ccc(O)cc1)NC(=O)CN1C(=O)[C@H](CCc3ccccc31)NC(=O)[C@H](Cc1c[nH]c3ccc(F)cc13)NC(=O)[C@H](Cc1c[nH]c3ccc(F)cc13)NC(=O)CNC(=O)[C@H](CCCCN)NC(=O)CCSCc1cccc(c1)CSC[C@@H](C(N)=O)NC2=O", "4.30 to 4.68"),
]

Query CS[C@H]1C[C@H]2C(=O)N[C@H](C(N)=O)CSCc3cccc(c3)CSCCC(=O)N[C@@H](CCCCN)C(=O)NCC(=O)N[C@@H](Cc3c[nH]c4ccc(F)cc34)C(=O)N[C@@H](Cc3c[nH]c4ccc(F)cc34)C(=O)N[C@@H](CC(=O)O)C(=O)N[C@@H](Cc3cnc[nH]3)C(=O)N[C@@H](Cc3ccc(O)cc3)C(=O)N2C1 [Compound 363] ([Mpa]KG[Trp(5-F)][Trp(5-F)]DHY[X9]C-NH2; linker 1-10 via mXylylene) yields pIC50 of 6.00 to 7.00
